Biological target: Human Siglec-9-Fc (recombinant human Siglec-9 extracellular domain Q18-G348 fused to human IgG1 Fc) (human)
Sequence (chain, as listed by the source limits assumed): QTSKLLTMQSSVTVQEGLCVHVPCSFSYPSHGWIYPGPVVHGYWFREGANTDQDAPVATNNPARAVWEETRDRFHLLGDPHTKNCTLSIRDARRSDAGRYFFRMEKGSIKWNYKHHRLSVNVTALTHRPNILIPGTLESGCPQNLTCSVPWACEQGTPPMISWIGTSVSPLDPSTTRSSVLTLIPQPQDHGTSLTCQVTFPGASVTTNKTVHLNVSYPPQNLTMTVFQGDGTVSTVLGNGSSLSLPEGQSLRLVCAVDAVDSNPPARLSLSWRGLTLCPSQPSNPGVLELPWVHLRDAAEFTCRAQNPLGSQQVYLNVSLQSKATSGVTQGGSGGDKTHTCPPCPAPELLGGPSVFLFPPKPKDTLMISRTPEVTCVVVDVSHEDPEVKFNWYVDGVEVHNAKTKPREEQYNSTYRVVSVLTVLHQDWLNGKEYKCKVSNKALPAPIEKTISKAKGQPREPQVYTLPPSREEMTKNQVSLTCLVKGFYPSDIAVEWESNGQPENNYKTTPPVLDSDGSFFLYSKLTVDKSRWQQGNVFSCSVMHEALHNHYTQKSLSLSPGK
Assay: BLI binning, hSiglec-9-Fc on AHC sensor; competitor bound first (row): 13O18
Procedure: Epitopic diversity of functional antibodies was further assessed by antibody cross-blocking experiments, performed on a ForteBio Octet Red384 system. All samples were prepared in black 384-well flat bottom plates from (Greiner, Cat. #781209) with a working volume of 120 uL and diluted in kinetics buffer (1×DPBS containing 0.1% bovine serum albumin, 0.05% sodium azide, and 0.02% Tween®20). […] Binning results were calculated using ForteBio Data Analysis HT software. […]
quantity-kind: maximum binding nm shift (nm)
Give the value in nm but do not write nm after it.

Query: Return reported maximum binding nm shift; argument: 12P18 (antibody, V domains shown) VH: QVQLQQSGAELVRPGASVTLSCKASGYTFTDYEMHWVKQTPVHGLEWIGAIDPEAGGTAYNRKFKGKAILTADKSSSTAYMELRSLTSEDSAVYYCTNLGRDYWGQGTTLTVSS VL: DIVMSQSPSSLAVSVGEKVTMSCKSSQSLLYSSTQKNYLAWYQQKPGQSPKRLIYWASTRESGVPDRFTGSGSGTDFTLTISSVKAEDLAVYYCQQYYSYWTFGGGTKLEIK
Result: 0.358

Attribution: patent US20220396627A1
